Test: pH characteristics of triazole derivatives (fluorescence intensity vs pH)
Assay type: physicochemical
Details: sodium phosphate buffers of various pH, 1 μM in sodium phosphate buffers, from fluorescence intensity vs pH; read-out: pKa of the proton of the triazole ring
Description: Triazole derivatives prepared by the method disclosed in U.S. Pat. No. 5,874,590 (DAF-2T and DAF-5T, the structures thereof are shown below) and DAF-FM T were dissolved at 1 μM in sodium phosphate buffers adjusted to each of the pH values, and fluorescence intensity was measured. The excitation wavelength and fluorescence wavelength were 495-515 (nm) for DAF-2T, 505-520 (nm) for DAF-5T and 495-515 (nm) for DAF-FMT, respectively. […]
Quick reference for pKa among some compounds

>>> measvalue("O=C1OC2(c3ccc(O)cc3Oc3cc(O)ccc32)c2cc3nn[nH]c3cc21")
7.94

Next compound, please.
Name the recorded pKa for O=C1OC2(c3cc(Cl)c(O)cc3Oc3cc(O)c(Cl)cc32)c2cc3nn[nH]c3cc21 .
7.41
